MEASUREMENT TYPE: melting point (°C)
Give bare numbers, in °C.

Worked cases, melting point given:
Cc1cc(C)c(O)c(C(C)(C)C)c1
22.3
CC1=CCC(C(C)(C)O)CC1 (stereo not given)
37
CCCC(=O)C=Cc1ccc(O)c(O)c1
132

Value sought for every listed compound: melting point.
1. CN[C@@H](C)[C@@H](O)c1ccccc1
2. BrCCCOc1ccccc1

1. 90.5
2. 10.7

---

Assign classes using reported log10 vapour pressure (mmHg) values and the ranges low interval (below -4), middle interval (-4 to below 0.4), high interval (0.4 or more), please.

CC(C)CCBr
high interval
CCSC
high interval

Would you mind sorting `O=Cc1cccc([N+](=O)[O-])c1` into the appropriate category?
middle interval

Would you mind sorting `O=[n+]1[n-]c(-n2ccnc2)nc2ccc(Cl)cc21` into the appropriate category?
low interval

Would you mind sorting `CN(CCO)CCO` into the appropriate category?
middle interval

Would you mind sorting `FC(F)(Br)C(F)(F)Br` into the appropriate category?
high interval

Would you mind sorting `Clc1ccc(Oc2ccccc2)cc1` into the appropriate category?
middle interval

Just for reference, the OPERA property sets (Mansouri et al. 2018) is where these values come from.
